# Tested On: T1, BSA-conjugated Aβ heptapeptide AEFRHDC (C-terminal Cys coupled to NSMP-activated BSA);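 also: ELISA of antibody at 10 or 2 µg/ml binding plate-coated BSA–peptide conjugates, detected with HRP anti-human Ig and TMB colour, mock-treated BSA without peptide as negative control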
# T1 construct: also called Peptide 2-7
# T1 peptide: AEFRHDC
# Test Name: ELISA
Observation Type: OD ratio 2-7/BSA
Answer with the value's number alone.

Solved entries (count: 2):
Binder	OD ratio 2-7/BSA
MS-Roche #7.9.H3 Fab (Fab, V domains shown, assembled) VH: QVQLVESGGGLVQPGGSLRLSCAASGFTFSSYAMSWVRQAPGKGLEWVSAINYQGNRKYYADSVKGRFTISRDNSKNTLYLQMNSLRAEDTAVYYCARGKGNTHKPYGYVRYFDVWGQGTLVTVSS VL: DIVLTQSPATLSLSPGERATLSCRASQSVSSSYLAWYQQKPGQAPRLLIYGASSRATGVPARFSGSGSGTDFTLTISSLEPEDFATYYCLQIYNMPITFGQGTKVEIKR	35
MS-Roche #7.12.L1 Fab (Fab, V domains shown) VH: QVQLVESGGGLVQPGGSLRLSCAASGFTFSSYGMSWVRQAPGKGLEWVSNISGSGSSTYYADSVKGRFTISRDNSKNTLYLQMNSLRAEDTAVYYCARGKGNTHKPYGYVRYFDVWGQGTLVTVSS VL: DIVLTQSPATLSLSPGERATLSCRASQYVFRRYLAWYQQKPGQAPRLLISGSSNRATGVPARFSGSGSGTDFTLTISSLEPEDFAVYYCLQLYNIPNTFGQGTKVEIKR	16

// next entry
Looking up MS-Roche #7.11.H1 Fab (Fab, V domains shown) VH: QVQLVESGGGLVQPGGSLRLSCAASGFTFSSYAMSWVRQAPGKGLEWVSGINAAGFRTYYADSVKGRFTISRDNSKNTLYLQMNSLRAEDTAVYYCARGKGNTHKPYGYVRYFDVWGQGTLVTVSS VL: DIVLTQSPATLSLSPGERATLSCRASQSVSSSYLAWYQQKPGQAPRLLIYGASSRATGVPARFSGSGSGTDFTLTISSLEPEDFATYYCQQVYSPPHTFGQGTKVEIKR , I found its OD ratio 2-7/BSA recorded as 31

Every entry's value here was drawn from patent US20100172907A1.
